Overview of reported IC50 CB4 across a group of molecules:
test system: coxsackievirus type B4 (CB4,JVB); assay: In vitro anti-picornavirus activity (MTT), CB4; type: cell-based; settings: HeLa cells, MTT method, 37° C.
quantity-measured: IC50 CB4 (µg/mL)

>>> recorded_number("CCn1c(-c2cccs2)c(C)c(=O)c2cc(C(C)C)ccc21 [Compound A311]")
2.0
>>> recorded_number("CCn1c2c(c(=O)c3cc(C(C)C)ccc31)Cc1ccccc1-2.Cl [Compound B3]")
0.82
>>> recorded_number("Cc1ccc(-c2cc(=O)c3cc(C(C)C)ccc3n2C)s1 [Compound A314]")
0.82
>>> recorded_number("COc1c(OCC(C)C)ccc2c1c(=O)c(C)c(-c1ccccc1)n2C [Compound A196]")
1.9
>>> recorded_number("CCc1ccc2c(c1)Cc1c-2n(C)c2ccc(C(C)C)cc2c1=O [Compound B8]")
0.60

* * *

system: human rhinovirus type 1B (HRV 1B, B632); experiment: Anti-rhinovirus activity (MTT), HRV1B; assay type: cell-based; conditions: HeLa (Ohio strain) cells, MTT method, 33° C.
Attribute: IC50 HRV1B
quantity-measured: IC50 HRV1B (µg/mL)

>>> recorded_number("CC(C)c1ccc2c(c1)c(=O)cc(-c1ccn(C)c1)n2C [Compound A306]")
0.89
>>> recorded_number("CCn1c(-c2ccc(Br)s2)cc(=O)c2cc(C(C)C)ccc21 [Compound A317]")
0.82
>>> recorded_number("CC(C)c1ccc2c(c1)c(=O)cc(-c1ccc(Br)s1)n2C [Compound A316]")
0.56
>>> recorded_number("Cc1cc2c(cc1OCC(C)C)c(=O)c(C)c(-c1ccccc1)n2C [Compound A234]")
1.0
>>> recorded_number("CCn1c(-c2ccn(C)c2)cc(=O)c2cc(C(C)C)ccc21 [Compound A307]")
0.83

* * *

# IC50 HRV1B annotations
test system: human rhinovirus type 1B (HRV 1B, B632); assay: Anti-rhinovirus activity (MTT), HRV1B; format: cell-based; conditions: HeLa (Ohio strain) cells, MTT method, 33° C.
quantity-measured: IC50 HRV1B (µg/mL)

>>> recorded_number("CCn1c(-c2ccccc2)c(C)c(=O)c2c(Cl)c(OCC(C)C)ccc21")
0.86
>>> recorded_number("CC(C)c1ccc2c(c1)c(=O)cc(-c1ccco1)n2C")
1.4
>>> recorded_number("CCn1c(-c2ccccc2)cc(=O)c2c(C)c(OCC(C)C)ccc21")
0.71
>>> recorded_number("CC(C)c1ccc2c(c1)c(=O)cc(-c1cccs1)n2C")
0.81
>>> recorded_number("CCn1c(-c2ccccn2)cc(=O)c2cc(C(C)C)ccc21")
4.5
>>> recorded_number("CCn1c(-c2ccc(OC)c(C)c2)cc(=O)c2cc(C(C)C)ccc21")
0.78
>>> recorded_number("COc1ccc(-c2c(C)c(=O)c3cc(OCC(C)C)c(C)cc3n2C)cc1C")
2.0
>>> recorded_number("Cc1c(-c2ccccc2)n(-c2ccc(F)cc2)c2ccc(C(C)C)cc2c1=O")
0.27
>>> recorded_number("COc1cc2c(=O)c(C)c(-c3ccccc3)n(C)c2cc1C(C)C")
1.6

* * *

test system: HeLa cells; experiment: Cytotoxicity (MTT, without virus), HeLa; details: HeLa, no virus, incubated for 4 days
quantity-measured: Cytotoxicity CC50 HeLa

>>> result("Cc1c(OCC(C)C)ccc2c1c(=O)cc(-c1ccccc1)n2C [Compound A186]")
">5 µg/mL"
>>> result("CCn1c(-c2ccccc2)c(C)c(=O)c2c(Cl)c(OCC(C)C)ccc21 [Compound A179]")
">4 µg/mL"
>>> result("Cc1c(-c2cccs2)n(C)c2ccc(OCC(C)C)c(C)c2c1=O [Compound A318]")
">2.5 µg/mL"
>>> result("CCn1c(-c2ccccc2)cc(=O)c2c(C)c(OCC(C)C)ccc21 [Compound A187]")
">4 µg/mL"
>>> result("CCn1c2c(c(=O)c3cc(C(C)C)ccc31)Cc1cc(OC)c(OC)cc1-2 [Compound B22]")
">10 µg/mL"
>>> result("CCn1c(-c2ccsc2)cc(=O)c2cc(C(C)C)ccc21 [Compound A313]")
"18 µg/mL"
>>> result("CCn1c(-c2cccc(OC)c2)c(C)c(=O)c2cc(C(C)C)ccc21 [Compound A78]")
">8 µg/mL"
>>> result("CCn1c2c(c(=O)c3cc(CC(C)C)ccc31)Cc1cc(OC)ccc1-2 [Compound B15]")
">2.5 µg/mL"
>>> result("Cc1c(-c2ccccc2)n(C)c2ccc(NCC(C)C)cc2c1=O [Compound A157]")
">5 µg/mL"
>>> result("CCn1c(-c2ccccc2)c(C)c(=O)c2ccc(C(C)C)cc21 [Compound A122]")
">10 µg/mL"
>>> result("COc1ccc(-n2c(-c3ccccc3)c(C)c(=O)c3cc(C(C)C)ccc32)cc1 [Compound A326]")
">2.5 µg/mL"
>>> result("Cc1c(-c2ccccc2)n(C)c2ccc(OCC(C)C)c(N)c2c1=O.Cl [Compound A194]")
">2.5 µg/mL"
>>> result("CCn1c(-c2cccc(C)c2)c(C)c(=O)c2c(Cl)c(OCC(C)C)ccc21 [Compound A181]")
">2.5 µg/mL"
>>> result("CCn1c(-c2cccs2)cc(=O)c2cc(C(C)C)ccc21 [Compound A309]")
"12 µg/mL"
>>> result("CCn1c2c(c(=O)c3cc(C(C)C)ccc31)Cc1ccccc1-2.Cl [Compound B3]")
">4 µg/mL"
>>> result("CC(C)c1ccc2c(c1)c(=O)cc(-c1ccn(C)c1)n2C [Compound A306]")
"14 µg/mL"
>>> result("Cc1ccc(-n2c(-c3ccccc3)c(C)c(=O)c3cc(C(C)C)ccc32)cc1 [Compound A325]")
">2.5 µg/mL"
>>> result("COc1ccc(-c2c(C)c(=O)c3cc(OCC(C)C)c(C)cc3n2C)cc1C [Compound A237]")
">4 µg/mL"

* * *

system: coxsackievirus type B4 (CB4,JVB); test: In vitro anti-picornavirus activity (MTT), CB4; assay type: cell-based; details: HeLa cells, MTT method, 37° C.
quantity-measured: IC50 CB4 (µg/mL)

>>> recorded_number("Cc1cc2c(c(C)c1OCC(C)C)c(=O)c(C)c(-c1ccccc1)n2C [Compound A286]")
1.4
>>> recorded_number("CCn1c(-c2ccccc2)c(C)c(=O)c2cc(OCC(C)C)c(C)cc21 [Compound A235]")
2.9
>>> recorded_number("CCn1c(-c2ccccc2)cc(=O)c2c(C)c(OCC(C)C)ccc21 [Compound A187]")
0.99
>>> recorded_number("CCn1c2c(c(=O)c3cc(C(C)C)ccc31)Cc1cc(OC)c(C)cc1-2 [Compound B20]")
0.60

* * *

test system: HeLa-S3 cells; assay: Cytotoxicity (MTT, without virus), HeLa-S3; settings: HeLa-S3, no virus, incubated for 4 days
Listed below: Cytotoxicity CC50 HeLa-S3 values for each entry.
quantity-measured: Cytotoxicity CC50 HeLa-S3

>>> result("Cc1c(-c2ccccc2)n(C)c2ccc(NCC(C)C)cc2c1=O")
">5 µg/mL"
>>> result("COc1ccc(-c2cc(=O)c3cc(C(C)C)ccc3n2C)cc1C")
">10 µg/mL"
>>> result("CC(C)c1ccc2c(c1)c(=O)cc(-c1ccc(Br)s1)n2C")
">5 µg/mL"
>>> result("Cc1c(-c2ccccc2)n(C)c2ccc(OCC(C)C)c(N)c2c1=O.Cl")
">2.5 µg/mL"
>>> result("COc1c(OCC(C)C)ccc2c1c(=O)c(C)c(-c1ccccc1)n2C")
">10 µg/mL"

* * *

test: Cytotoxicity (MTT, without virus), HeLa(Ohio); details: human, HeLa (Ohio strain) cells (uninfected)
quantity-measured: CC50 at 4 days

>>> result("CCn1c(-c2ccccc2)c(C)c(=O)c2cc(C(C)C)ccc21")
"11 µg/mL"
>>> result("Cc1c(-c2ccccc2)n(-c2ccc(Cl)cc2)c2ccc(C(C)C)cc2c1=O")
"> 1 µg/mL"
>>> result("Cc1c(-c2ccccc2)n(-c2ccccc2)c2ccc(C(C)C)cc2c1=O")
"> 5 µg/mL"
>>> result("CCn1c2c(c(=O)c3cc(C(C)C)ccc31)Cc1c(C)csc1-2")
"> 5 µg/mL"
>>> result("CCn1c2c(c(=O)c3cc(C(C)C)ccc31)Cc1ccccc1-2")
"> 10 µg/mL"
>>> result("CCn1c2c(c(=O)c3cc(C(C)C)ccc31)Cc1cc(C)sc1-2")
"> 5 µg/mL"
>>> result("CCn1c2c(c(=O)c3cc(C(C)C)ccc31)Cc1c-2ccn1C")
"> 10 µg/mL"
>>> result("CCn1c2c(c(=O)c3cc(C(C)C)ccc31)Cc1ccsc1-2")
"> 10 µg/mL"
>>> result("CCn1c(-c2ccc(OC)c(C)c2)c(C)c(=O)c2c(C)c(OCC(C)C)ccc21")
"> 4 µg/mL"
>>> result("CCn1c(-c2ccco2)cc(=O)c2cc(C(C)C)ccc21")
"19 µg/mL"

From: patent US7109338B2
